This collection of values is drawn from ChEMBL document CHEMBL4024791.

test: Distribution coefficient, log D of the compound; format: physicochemical; conditions: octanol/water
Some molecules, each annotated with its measured logD.
Please reply with the number alone, leaving off any unit.

                                test_smiles  value
0    O=C1COc2ccc(N3CCOC[C@H]3c3ccccc3)nc2N1    2.4
1  C[C@@H]1CN(c2cc3c(cn2)OCC(=O)N3)[C@H](c2ccccc2)CO1    2.5
2  C[C@@H]1CN(c2ccc3c(n2)NC(=O)CO3)[C@H](c2ccc(F)cc2)CO1    3.2
3  N#CC[C@@H]1CN(c2ccc3c(n2)NC(=O)CO3)[C@H](c2ccccc2)CO1    2.3
4  C[C@@H]1CN(c2ccc3c(c2)NC(=O)CO3)[C@H](c2ccccc2)CO1    3.1
5  CC1(C)CN(c2ccc3c(n2)NC(=O)CO3)[C@H](c2ccccc2)CO1    3.3

Which value of logD has been reported for `O=C1COc2ccc(N3CCOC[C@H]3c3ccccc3)cc2N1` in the records?
2.7

Which value of logD has been reported for `O=C1COc2ccc(N3C[C@@H](CO)OC[C@H]3c3ccccc3)nc2N1` in the records?
1.8

Which value of logD has been reported for `COC[C@@H]1CN(c2ccc3c(n2)NC(=O)CO3)[C@H](c2ccccc2)CO1` in the records?
2.5

Which value of logD has been reported for `C[C@H]1CN(c2ccc3c(n2)NC(=O)CO3)[C@H](c2ccccc2)CO1` in the records?
2.7
